Data origin, for the record: PubChem BioAssay (NCI)

Test system: HS 578T breast
Measurement Description: NCI-60 one-dose screen, 48 h (100 = growth as untreated, 0 = no growth, -100 = all killed)
Condition: 10 µM unless noted
About 83,000 compounds went through this panel and 20% of them were active in at least one assay; those are over-represented in the sample as a whole.
// growth lookup, one value per entry
The response must be a number in % with no trailing unit.

# Compound, Output Unit, growth
records = [
    ("Cc1c(CN(C)C)cc(C(C)C)cc1C(C)C", "%", 124),
    ("COc1ccc(Cn2cc3c(c2-c2ccccc2)CCc2cnoc2-3)cc1N", "%", 10.4),
]

## Input Provide the documented growth with HS 578T breast as the system for O=c1c2c(c3ccccc3n1-c1ccccc1)NC(=S)NC2c1ccc(Cl)cc1 (stereo unspecified)
## Output -3.16

## Input Same question, "COC(=O)c1ccc2[nH]c(O)c(C(=Nc3ccc(N(C)C(=O)CN4CCN(C)CC4)cc3)c3ccc(C)cc3)c2c1" this time
## Output -2.52

## Input Similarly, "O=c1[nH]c2cc(O)ccc2n2cc3c(F)cccc3c12" ?
## Output -26.1

## Input Same thing, different compound: "CCCCCCCCCC[N+](C)(C)C"
## Output 26.5
